experiment.notes: NCI Yeast Anticancer Drug Screen. Data for the bub3 strain (AID 167)
test.context: S. cerevisiae bub3 mutant strain, at 50.0 µM
Compounds without any hit were thinned out: in the full panel of roughly 79,000, 15% have a hit. Calls of active or inactive are those of the source. Cut-off read from the data, not from the text of the source: active = growth inhibition above about 70%; inactive = the rest.
Your response should consist of one outcome taken from active, inactive

# compound, cat
rows = [
    ("O=C1c2ccccc2C(=O)N1CCn1nc(-c2ccccc2)cc(-c2ccccc2)c1=O", "inactive"),
    ("CN(CCN(C)C(=O)CCn1cc(F)c(=O)[nH]c1=O)C(=O)CCn1cc(F)c(=O)[nH]c1=O", "inactive"),
    ("O=C(CCBr)OCCC1CCCCC1", "inactive"),
    ("Cc1ccc(S(=O)(=O)Oc2ccccc2C(=O)O)cc1", "inactive"),
    ("O=C(NC(=S)c1ccco1)NS(=O)(=O)c1ccc(Cl)cc1", "inactive"),
]

Query: What was the test verdict on O=c1[nH]c2cc(Cl)ccc2nc1/C(=N/Nc1ccccc1)C(O)c1ccco1 (stereo not drawn) ?
Response: inactive

Query: What was the test verdict on COc1cc2c(cc1OC)C1c3ccccc3CCCN1CC2 (stereo not drawn) ?
Response: inactive

Query: What was the test verdict on CC(C(=O)O)C(=O)NNc1ccccc1 (stereo not drawn) ?
Response: inactive

Query: What was the test verdict on C/C(=C\c1ccc(F)cc1)C(=O)O ?
Response: inactive

Query: What was the test verdict on Cc1nn(C(=O)c2cccnc2)c(-c2ccccc2)c1N=Nc1ccc(C(=O)O)cc1 ?
Response: inactive

Query: What was the test verdict on COc1cc(/C=C/C=C(C(=O)O)C(=O)O)cc(OC)c1OC ?
Response: inactive

Query: What was the test verdict on O=C1NC(=O)[C@H]2C3C=CC([C@@H]12)[C@@H]1C(=O)NC(=O)[C@H]31 ?
Response: inactive

Query: What was the test verdict on CC1(C)OC2C(COC(=O)c3ccc([N+](=O)[O-])cc3)OC(NC(=O)N(CCCl)N=O)C2O1 (stereo not drawn) ?
Response: inactive

Query: What was the test verdict on CNS(=O)(=O)c1ccc(Cl)cc1 ?
Response: inactive

Query: What was the test verdict on COc1cc(/C=C/Cc2cc3c(cc2OCCO)OCO3)cc(OC)c1OC ?
Response: inactive

Query: What was the test verdict on COC(=O)c1c(OC)cc2cc3c(c(O)c2c1C)C(=O)C1(O)C(=O)C=C(OC)C(OC(=O)CC(C)N)=C1C3=O (stereo not drawn) ?
Response: inactive

Query: What was the test verdict on Cc1nnc(-c2ccccc2)s1 ?
Response: inactive

Query: What was the test verdict on CCN(CC)CCn1ncc2ccc3c(c(=O)c4cccnc4n3CCN(CC)CC)c21 ?
Response: inactive

* * *

experiment.notes: NCI Yeast Anticancer Drug Screen. Data for the rad50 strain (AID 155);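 note: 0% = growth of vehicle-only cultures of the same strain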
test.context: S. cerevisiae rad50 strain growth inhibition; at 50.0 µM
The panel holds about 79,000 compounds, 15% with a hit somewhere; the sample as a whole holds those more often. Activity calls are given as the source filed them. Cut-off read from the data, not from the text of the source: active = growth inhibition above about 70%; inactive = the rest.
Your response should consist of one outcome taken from active, inactive

Query: What was the test verdict on O=[N+]([O-])c1ccc(NC(CO)C(O)C(O)C(O)CO)c([N+](=O)[O-])c1 (configuration not stated) ?
Response: inactive

Query: What was the test verdict on CC(=O)OC1CCC2(C)C(CCC3C2CC(OC(C)=O)C2(C)C(C(C)CCC(c4ccccc4)c4ccccc4)CCC32)C1 (configuration not stated) ?
Response: inactive

* * *

experiment.notes: NCI Yeast Anticancer Drug Screen. Data for the rad50 strain (AID 155);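 note: 0% = growth of vehicle-only cultures of the same strain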
test.context: S. cerevisiae rad50 strain growth inhibition; at 50.0 µM; active compounds read high
Method: Growth inhibition of yeast strains with defined genetic alterations is measured as a screen for potential anti-cancer activity. Selected strains with alterations in DNA damage repair or cell cycle control were exposed to compounds and growth inhibition was measured relative to vehicle treated controls. The strain used in this assay is rad50
About 79,000 compounds went through this panel and 15% of them were active in at least one assay; those are over-represented in the sample as a whole.
assay.endpoint: growth inhibition (%)
// return numeric value only (unit: %, not printed)

Answered cases to consult:
# compound, growth inhibition (%)
data = [
    ("CCCCCCCCCO/N=C\\c1c2c(O)c3c(O)c(C)c4c(c3c1O)C(=O)C(C)(O/C=C\\C(OC)C(C)C(OC(C)=O)C(C)C(O)C(C)C(O)C(C)/C=C\\C=C(\\C)C(=O)N2)O4 (stereo not drawn)", -1.15),
    ("Cc1nc(C)c(C(=O)NNC(=O)C[n+]2ccccc2)cc1C(=O)NNC(=O)C[n+]1ccccc1", -27.6),
    ("CCCCC(/C=C\\C(=O)O)CC (stereo not drawn)", 29.7),
    ("CCOC(=O)c1nc(SC)sc1NC(=O)c1ccc([N+](=O)[O-])cc1", -11),
    ("COc1ccc2nc(-c3ccccc3)cc(OCC(=O)O)c2c1", -30.2),
]

Query: Requested read-out: growth inhibition. Entry: Cc1cc(S(=O)(=O)Nc2nc(N)nc(N3CCCCC3)n2)c(S)cc1Cl
Response: -0.3

Query: Requested read-out: growth inhibition. Entry: CCCCCCCCCCCCCCCc1cc(OC)ccc1S(=O)(=O)O
Response: 22.6

* * *

experiment.notes: NCI Yeast Anticancer Drug Screen. Data for the bub3 strain (AID 167)
test.context: S. cerevisiae bub3 mutant strain, at 50.0 µM
About 79,000 compounds went through this panel and 15% of them were active in at least one assay; those are over-represented in the sample as a whole. Active and inactive are the calls of the source. Cut-off read from the data, not from the text of the source: active = growth inhibition above about 70%; inactive = the rest.
Your response should consist of one outcome taken from yes (1) (active), no (0) (inactive)

Sample answers from the record:
# molecule, cat
measured = [
    ("CSc1cc(/C=C/c2ccccc2)ccc1N", "no (0)"),
    ("Cc1cccc(NS(=O)(=O)c2ccc(Cl)cc2)c1C", "yes (1)"),
    ("Cc1ccc(S(=O)(=O)O)c2c([N+](=O)[O-])cccc12", "no (0)"),
    ("COc1ccc(NC(=O)NCc2ccc(C)cc2)cc1", "no (0)"),
    ("NC(=O)c1cc[cH-]c1.[Fe+2].c1cc[cH-]c1", "no (0)"),
]

Query: What was the test verdict on O=C1C(O)CCN1C1CCCCC1 (centres undefined) ?
Response: no (0)

Query: What was the test verdict on c1ccc2c(c1)OCCOCCOc1ccccc1OCCO2 ?
Response: no (0)

Query: What was the test verdict on C[N+](C)([O-])Cc1cccc(NC(=O)c2ccc(C(=O)Nc3cccc(C[N+](C)(C)[O-])c3)cc2)c1 ?
Response: no (0)

* * *

# growth inhibition annotations
experiment.notes: NCI Yeast Anticancer Drug Screen. Data for the mlh1 rad18 strain (AID 175)
test.context: S. cerevisiae mlh1 rad18 strain growth inhibition; at 50.0 µM; active compounds read high
This is part of a sample that, as a whole, favours compounds with a hit. Of some 79,000 tested, about 15% had one in any assay.
// return numeric value only (unit: %, not printed)

Query: Requested read-out: growth inhibition. Entry: CCCCC1NC(=O)OC1=O (stereo not drawn)
Response: -33.4

Query: Requested read-out: growth inhibition. Entry: COc1cc(/C=N/N=C(\N)NO)cc(Cl)c1O
Response: -36.1

* * *

experiment.notes: NCI Yeast Anticancer Drug Screen. Data for the mlh1 rad18 strain (AID 175)
test.context: S. cerevisiae mlh1 rad18 strain growth inhibition; at 50.0 µM; active compounds read high
Compounds without any hit were thinned out: in the full panel of roughly 79,000, 15% have a hit.
# growth inhibition annotations
// return numeric value only (unit: %, not printed)

# molecule, growth inhibition / %
data = [
    ("Cc1[nH]c(C)c2ccc(=O)ccc12", -7.65),
    ("COc1ccccc1C(=O)N/N=C/c1ccncc1", 9.8),
    ("O=C1c2ccccc2C(=O)N1C/C(Cl)=C/Cl", -22.6),
    ("CC/C(=N/Nc1cn[nH]c(=O)c1Cl)c1ccccc1", -1.5),
    ("NCCCCC(N)C(=O)O.[Cu+2] (stereo not drawn)", -22.8),
]

Query: Requested read-out: growth inhibition. Entry: CC1CN(c2ccc(Cl)cc2)CC(C)OC(=O)O1 (stereo not drawn)
Response: 8.6

Query: Requested read-out: growth inhibition. Entry: COc1ccccc1NC(=O)NCCN1CCCC1
Response: 5.3

Query: Requested read-out: growth inhibition. Entry: CCOC(=O)c1cc(C)[nH]c1C
Response: 3.9

* * *

experiment.notes: NCI Yeast Anticancer Drug Screen. Data for the bub3 strain (AID 167)
test.context: S. cerevisiae bub3 mutant strain, at 50.0 µM, active compounds read high
Compounds without any hit were thinned out: in the full panel of roughly 79,000, 15% have a hit.
Label met when growth inhibition is at or above 10%; anything below gets not met.

# compound, cat
data = [
    ("Cc1ccc([Si](C)(C)c2ccccc2)cc1", "not met"),
    ("COCCN(C(=O)c1ccccc1)C1CCC2(SCCS2)c2[nH]c3ccccc3c21 (stereo unspecified)", "not met"),
    ("COC(=O)C(=O)C(C(=O)c1cccc2ccccc12)c1nc2n(c1O)C(=N)N=N2 (stereo unspecified)", "not met"),
]

Query: Is it the case that CC(=O)Nc1ccc(/C=C(\NC(=O)c2ccccc2)C(=O)NNS(=O)(=O)c2ccc(C)cc2)cc1 has growth inhibition reaching or exceeding 10%?
Response: not met

Query: Is it the case that Cc1ccc(C)c(NC(=O)C(=O)C(C(=O)c2ccc3ccccc3c2)C2OC(=O)c3ccccc32)c1 (stereo unspecified) has growth inhibition reaching or exceeding 10%?
Response: not met

Query: Is it the case that CC/C(=N/NC(=O)NN)c1ccc(Cl)cc1 has growth inhibition reaching or exceeding 10%?
Response: met

Query: Is it the case that SCCCCN1CCCCC1 has growth inhibition reaching or exceeding 10%?
Response: not met

Query: Is it the case that CCc1nc(N)nc(N)c1-c1ccc2nn(-c3ccccc3)[n+]([O-])c2c1 has growth inhibition reaching or exceeding 10%?
Response: met

Query: Is it the case that CCOC(=O)C(C)(C)C(=O)Nc1ccccc1 has growth inhibition reaching or exceeding 10%?
Response: not met

Query: Is it the case that Cc1cc(N)c(C)c2ccncc12 has growth inhibition reaching or exceeding 10%?
Response: met

Query: Is it the case that Nc1nc(SCC(=O)O)[nH]c(=O)c1NS(=O)(=O)c1ccccc1[N+](=O)[O-] has growth inhibition reaching or exceeding 10%?
Response: not met
